- PROTOCOL DETAILS: Metabolic stability in human liver microsomes (HLM)
- TEST PARAMETERS: human, HLM CLint, n = 1 or average of n = 2-3
READOUT KIND: microsomal CLint (µL/min/mg)

Study these solved cases before continuing.
SMI	READOUT KIND	U	VALUE
N#C[C@@H]1CSCN1C(=O)CNC(=O)c1ccnc2ccc(N3C[C@@H]4C[C@H]3CO4)cc12	microsomal CLint	µL/min/mg	9
N#C[C@@H]1CSCN1C(=O)CNC(=O)c1ccnc2ccc(N3C[C@H]4CCC[C@@H](C3)O4)cc12	microsomal CLint	µL/min/mg	78
N#C[C@@H]1CSCN1C(=O)CNC(=O)c1ccnc2ccc(-n3ccc4c(F)cc(F)cc43)cc12	microsomal CLint	µL/min/mg	68
Cc1ccc(C2CN(c3ccc4nccc(C(=O)NCC(=O)N5CSC[C@H]5C#N)c4c3)C2)cc1	microsomal CLint	µL/min/mg	49
CC(C)OC1CCN(c2ccc3nccc(C(=O)NCC(=O)N4CSC[C@H]4C#N)c3c2)CC1	microsomal CLint	µL/min/mg	36

A: N#C[C@@H]1CSCN1C(=O)CNC(=O)c1ccnc2ccc(N3CC(C4CC4)C3)cc12
B: C[C@H]1CN(c2ccc3nccc(C(=O)NCC(=O)N4CSC[C@H]4C#N)c3c2)CCO1
Task: // which entry has the larger microsomal CLint value, A or B ? When you have decided, please share the label of that item.
Output: A
(A: 40 µL/min/mg, B: 7.5 µL/min/mg)

P: N#C[C@@H]1CSCN1C(=O)CNC(=O)c1ccnc2ccc(N3CC(F)(CF)C3)cc12
Q: N#C[C@@H]1CSCN1C(=O)CNC(=O)c1ccnc2ccc(N3CCCCC3)cc12
Task: // which entry has the larger microsomal CLint value, P or Q ? When you have decided, please share the label of that item.
Output: Q
(Q: 40 µL/min/mg, P: 7.3 µL/min/mg)

====

- PROTOCOL DETAILS: Kinetic solubility
- TEST PARAMETERS: kinetic from dmso stock, Solubility, kinetic solubility; n = 1 or average of n = 2-3
READOUT KIND: solubility (µM)

COMPOUND	solubility [µM]
CO[C@H]1CCCN(c2ccc3nccc(C(=O)NCC(=O)N4CSC[C@H]4C#N)c3c2)C1 (mixture of isomers) [Example 41]	620
CO[C@@H]1CCN(c2ccc3nccc(C(=O)NCC(=O)N4CSC[C@H]4C#N)c3c2)C1 [Example 161]	84
Cn1nccc1-c1ccc2nccc(C(=O)NCC(=O)N3CSC[C@H]3C#N)c2c1 [Example 174]	800
CCC1(O)CCN(c2ccc3nccc(C(=O)NCC(=O)N4CSC[C@H]4C#N)c3c2)CC1 [Example 189]	840
N#C[C@@H]1CSCN1C(=O)CNC(=O)c1ccnc2ccc(N3CC(F)(C4CC4)C3)cc12 [Example 31]	180

A: N#C[C@@H]1CSCN1C(=O)CNC(=O)c1ccnc2ccc(N3CCO[C@H](C(F)(F)F)C3)cc12 [Example 74]
B: N#C[C@@H]1CSCN1C(=O)CNC(=O)c1ccnc2ccc(-n3ncc4c3CCCC4)cc12 [Example 114]
C: CC1(C)CCN(c2ccc3nccc(C(=O)NCC(=O)N4CSC[C@H]4C#N)c3c2)C1 [Example 48]
Task: # rank by solubility, ascending (min first) Your answer should be the labels, listed in the requested order.
Output: B, C, A

====

- PROTOCOL DETAILS: Caco-2 cell permeability
- TEST PARAMETERS: human
READOUT KIND: efflux ratio

Study these solved cases before continuing.
COMPOUND	efflux ratio
N#C[C@@H]1CSCN1C(=O)CNC(=O)c1ccnc2ccc(N3CCC4(CC3)OCCO4)cc12 [Example 228]	0.9
C[C@H]1CCCN(c2ccc3nccc(C(=O)NCC(=O)N4CSC[C@H]4C#N)c3c2)C1=O (single isomer, unassigned) [Example 203]	20

a: N#C[C@@H]1CSCN1C(=O)CNC(=O)c1ccnc2ccc(N3CC4CCC(C3)O4)cc12 [Example 79]
b: N#C[C@@H]1CSCN1C(=O)CNC(=O)c1ccnc2ccc(N3CCCCC3=O)cc12 [Example 14]
c: Cc1ncccc1-c1ccc2nccc(C(=O)NCC(=O)N3CSC[C@H]3C#N)c2c1 [Example 128]
Task: Could you please sort these 3 entries by efflux ratio from high to low? Your answer should be the labels, listed in the requested order.
Output: c, a, b

====

- TGT: FAP (Homo sapiens (Human), UniProt Q12884)
- Sequence (Q12884 38-760): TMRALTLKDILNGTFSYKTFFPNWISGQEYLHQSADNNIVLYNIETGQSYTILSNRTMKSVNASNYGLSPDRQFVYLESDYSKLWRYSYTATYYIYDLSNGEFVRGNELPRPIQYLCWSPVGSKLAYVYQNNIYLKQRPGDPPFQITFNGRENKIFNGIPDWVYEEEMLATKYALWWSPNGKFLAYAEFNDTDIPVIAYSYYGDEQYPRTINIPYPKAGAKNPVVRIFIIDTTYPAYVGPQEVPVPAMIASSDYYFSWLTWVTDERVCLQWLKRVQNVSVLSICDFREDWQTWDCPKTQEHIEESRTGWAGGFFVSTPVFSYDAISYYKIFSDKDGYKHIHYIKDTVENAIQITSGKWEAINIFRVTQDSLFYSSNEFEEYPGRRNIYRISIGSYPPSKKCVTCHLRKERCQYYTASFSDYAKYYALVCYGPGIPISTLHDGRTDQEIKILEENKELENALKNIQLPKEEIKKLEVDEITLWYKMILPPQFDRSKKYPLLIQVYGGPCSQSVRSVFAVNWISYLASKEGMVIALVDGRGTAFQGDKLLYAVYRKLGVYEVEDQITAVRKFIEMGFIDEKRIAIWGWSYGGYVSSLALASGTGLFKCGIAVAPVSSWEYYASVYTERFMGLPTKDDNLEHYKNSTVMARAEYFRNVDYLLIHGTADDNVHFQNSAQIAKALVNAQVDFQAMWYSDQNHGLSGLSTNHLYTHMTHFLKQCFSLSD
- PROTOCOL DETAILS: hFAP inhibition assay
- Assay type: biochemical
- TEST PARAMETERS: hFAP […], Ala-Pro-AMC 20 μM; n = 1 or geometric mean n = 2-3
READOUT KIND: IC50 (nM)

P: CC(C)n1nccc1-c1ccc2nccc(C(=O)NCC(=O)N3CSC[C@H]3C#N)c2c1
Q: N#C[C@@H]1CSCN1C(=O)CNC(=O)c1ccnc2ccc(N3CCCC[C@H](F)C3)cc12
Task: // which entry has the larger IC50 value, P or Q ? When you have decided, please share the label of that item.
Output: P
(P: 0.72 nM, Q: 0.22 nM)

I: CC1(C)CCN(c2ccc3nccc(C(=O)NCC(=O)N4CSC[C@H]4C#N)c3c2)CC1
II: N#C[C@@H]1CSCN1C(=O)CNC(=O)c1ccnc2ccc(N3CCCC[C@H]3CF)cc12
Task: // which entry has the larger IC50 value, I or II ? When you have decided, please share the label of that item.
Output: I
(I: 0.34 nM, II: 0.2 nM)

I: N#C[C@@H]1CSCN1C(=O)CNC(=O)c1ccnc2ccc(-c3cncnc3)cc12
II: N#C[C@@H]1CSCN1C(=O)CNC(=O)c1ccnc2ccc(N3CC[C@H](F)C3)cc12
Task: // which entry has the larger IC50 value, I or II ? When you have decided, please share the label of that item.
Output: I
(I: 0.38 nM, II: 0.21 nM)

I: N#C[C@@H]1CSCN1C(=O)CNC(=O)c1ccnc2ccc(N3CC(F)(C4CC4)C3)cc12
II: Cn1nccc1-c1ccc2nccc(C(=O)NCC(=O)N3CSC[C@H]3C#N)c2c1
Task: Would you kindly point out which of I and II has the smaller IC50 figure? When you have decided, please share the label of that item.
Output: I
(I: 0.22 nM, II: 0.44 nM)

====

Below are pKd values recorded for hFAP (M39-A757) (Homo sapiens (Human), UniProt Q12884).
pKd: −log10 of the molar value.
READOUT KIND: pKd

Study these solved cases before continuing.
MOLECULE	TGT	VALUE
N#C[C@@H]1CSCN1C(=O)CNC(=O)c1ccnc2ccc(N3CC(CC(F)F)C3)cc12 [Example 144]	hFAP (M39-A757) (Homo sapiens (Human), UniProt Q12884)	10.31
CC1(C)CCN(c2ccc3nccc(C(=O)NCC(=O)N4CSC[C@H]4C#N)c3c2)C1 [Example 48]	hFAP (M39-A757) (Homo sapiens (Human), UniProt Q12884)	10.17

I: N#C[C@@H]1CSCN1C(=O)CNC(=O)c1ccnc2ccc(-n3ccc(C(F)(F)F)n3)cc12 [Example 118]
II: CC1(C(F)F)CN(c2ccc3nccc(C(=O)NCC(=O)N4CSC[C@H]4C#N)c3c2)C1 [Example 135]
Task: Would you kindly point out which of I and II has the smaller pKd figure? When you have decided, please share the label of that item.
Output: I

====

- PROTOCOL DETAILS: Metabolic stability in rat hepatocytes (rHep)
- TEST PARAMETERS: n = 1 or geometric mean of n = 2-3
READOUT KIND: rHep CLint (μL/min/1E6)

a: N#C[C@@H]1CSCN1C(=O)CNC(=O)c1ccnc2c(Cl)cc(N3CCOCC3)cc12
b: Cc1cc(C(F)(F)F)nn1-c1ccc2nccc(C(=O)NCC(=O)N3CSC[C@H]3C#N)c2c1
Task: // which entry has the larger rHep CLint value, a or b ? When you have decided, please share the label of that item.
Output: b
(b: 15 μL/min/1E6, a: 3 μL/min/1E6)

====

- PROTOCOL DETAILS: Caco-2 cell permeability
- TEST PARAMETERS: human
READOUT KIND: Papp A→B (×10⁻⁶ cm/s)

1: Cc1nc(C)c(-c2ccc3nccc(C(=O)NCC(=O)N4CSC[C@H]4C#N)c3c2)o1
2: N#C[C@@H]1CSCN1C(=O)CNC(=O)c1ccnc2ccc(N3CC4CCC(C3)O4)cc12
Task: Would you kindly point out which of 1 and 2 has the smaller Papp A→B figure? When you have decided, please share the label of that item.
Output: 1
(1: 0.48 ×10⁻⁶ cm/s, 2: 1.1 ×10⁻⁶ cm/s)

====

- PROTOCOL DETAILS: Caco-2 cell permeability
- TEST PARAMETERS: human
READOUT KIND: Papp B→A (×10⁻⁶ cm/s)

1: CC1(C(F)F)CN(c2ccc3nccc(C(=O)NCC(=O)N4CSC[C@H]4C#N)c3c2)C1
2: N#C[C@@H]1CSCN1C(=O)CNC(=O)c1ccnc2ccc(N3CCCCC3=O)cc12
3: C[C@@H]1CCCN(c2ccc3nccc(C(=O)NCC(=O)N4CSC[C@H]4C#N)c3c2)C1=O (single isomer, unassigned)
4: COC[C@@H]1CN(c2ccc3nccc(C(=O)NCC(=O)N4CSC[C@H]4C#N)c3c2)CCO1
Task: Number of compounds to sort: 4. Sort criterion: Papp B→A, ascending. Your answer should be the labels, listed in the requested order.
Output: 2, 3, 4, 1
(2: 2.4 ×10⁻⁶ cm/s, 3: 8.5 ×10⁻⁶ cm/s, 4: 17 ×10⁻⁶ cm/s, 1: 29 ×10⁻⁶ cm/s)
